# Test system: HCT-15 colon
# procedure_summary: NCI-60 one-dose screen, 48 h (100 = growth as untreated, 0 = no growth, -100 = all killed)
# test_conditions: 10 µM unless noted
This is part of a sample that, as a whole, favours compounds with a hit. Of some 83,000 tested, about 20% had one in any assay.
The threshold is 30%. Values of growth beneath it are tagged T; values meeting or exceeding it are tagged F.

// below: answered compounds
Cc1cc(C)c(C#N)c(Sc2nc(C)c([N+](=O)[O-])c(C)c2C#N)n1 :: F
CCCCCCCCCCCC[n+]1ccc(CCCCCCCCC)cc1 :: T
Clc1ccc(-n2ncc3c(NCCCN4CCOCC4)ncnc32)cc1 :: F
CCN(CC)CC(O)c1cc(-c2ccc(Cl)cc2)nc2cc(Cl)ccc12 (stereo unspecified) :: T
COc1cc2c(c(OC)c1OC)-c1ccc(NCc3ccccc3)c(=O)cc1[C@@H](NC(C)=O)CC2 :: T

Query string: # TODO verify growth < 30% strictly for this compound: CCCCCCCCC(=O)OCCCC(CCC(CCC1CCCO1)OC(=O)CCCCCCCC)OC(=O)CCCCCCCC (stereo unspecified)
Result string: F

====

# Test system: A498 renal
# procedure_summary: NCI-60 one-dose screen, 48 h
# test_conditions: 10 µM unless noted
About 83,000 compounds went through this panel and 20% of them were active in at least one assay; those are over-represented in the sample as a whole. Calls of active or inactive are those of the source. The calls were made as follows: active = growth percent below 10; inactive = the rest.
Hi! Could you answer with just one of these? 1 (yes) for active, 0 (no) for inactive

// below: answered compounds
O=C1c2ccccc2C(=O)c2c(O)c(Cl)cc(O)c21 :: 0 (no)
CCCCCCCCCCCC1N=C(N)N=C(N)N1c1cccc(Br)c1 (stereo not drawn) :: 0 (no)
CC(C)(C)c1ccc(CCO)cc1 :: 0 (no)
c1csc(-c2[nH]nc3c2CCc2ccccc2-3)c1 :: 0 (no)
CC1(O)CCCCCC1 :: 0 (no)
N=C(N)Sc1cccc[n+]1[O-] :: 0 (no)
O=C1c2ccccc2Cc2cccc(Cl)c21 :: 0 (no)
O=C(c1ccccc1)C(Br)[N+](=O)[O-] (stereo not drawn) :: 0 (no)

Query string: Could you check what this test reported for "O/N=C1\c2ccccc2-c2ccc(F)cc21" ?
Result string: 0 (no)

Query string: Here is the next compound: "Cc1cc(C(=C2C=CC(=Nc3ccccc3)C=C2)c2ccc(Nc3ccccc3)cc2)ccc1N"
Result string: 1 (yes)

Query string: Here is the next compound: "O=C1C(=O)c2cccnc2-c2ncccc21"
Result string: 1 (yes)

Query string: Here is the next compound: "CC(C)=C1C=C2CC[C@@H]3[C@](C)(CCC[C@@]3(C)C(=O)O)[C@H]2CC1"
Result string: 0 (no)

Query string: Here is the next compound: "Oc1ccc(Cl)cc1C(c1cc(Cl)ccc1O)C(Cl)(Cl)Cl"
Result string: 0 (no)

====

# maps each entry to its growth
# Test system: SF-539 CNS
# procedure_summary: NCI-60 one-dose screen, 48 h (100 = growth as untreated, 0 = no growth, -100 = all killed)
# test_conditions: 10 µM unless noted
This is part of a sample that, as a whole, favours compounds with a hit. Of some 83,000 tested, about 20% had one in any assay. Calls of active or inactive are those of the source. Rule for the calls: active = growth percent below 10; inactive = the rest.

CN(C)c1ccc(/C=C/c2nccc3ccccc23)cc1 :: 99% (inactive)

Query string: Endpoint output: growth of "O=C(Nc1ccc(Cl)c(Cl)c1)Nc1ccccc1O" . Value?
Result string: 91.5% (inactive)

Query string: Here is the next compound: "NNc1ccc(Cl)cc1Cl"
Result string: 94.5% (inactive)

Query string: Here is the next compound: "Fc1ccc(NCCS)cc1"
Result string: 103% (inactive)
